Source listed as paper PMC12175177.

- System: SARS-CoV-2 A2.5 variant
- Protocol notes: microbe, parasite or virus in culture
- Type: cell-based
- Run conditions: Severe acute respiratory syndrome coronavirus 2, Vero C1008; read-out: IC50 (Figure 4 curve)
Counter-ions that a name gives are not always drawn.
Listed below: IC50 values for each entry.
The reply should contain only the number, in µM.

Known IC50 results, listed for orientation:
Compound: CCN(CCO)CCCC(C)Nc1ccnc2cc(Cl)ccc12 (stereo not drawn) [Hydroxychloroquine sulfate (HCQ), Hydroxychloroquine sulfate]
IC50 (µM): 13.3
//
Compound: CCN(CC)CCCC(C)Nc1ccnc2cc(Cl)ccc12 (stereo not drawn) [Chloroquine diphosphate (CQ), Chloroquine diphosphate]
IC50 (µM): 6.27

Consider the record given below.
stdin: // fetch SARS-CoV-2 A2.5 variant IC50 for COc1cc(NC(C)CCCN)c2ncccc2c1 (stereo not drawn) [Primaquine Phosphate (PQ), Primaquine Phosphate]
stdout: 19.3
